- measured on: SSTR3 (Homo sapiens)
- Sequence (P32745 whole entry): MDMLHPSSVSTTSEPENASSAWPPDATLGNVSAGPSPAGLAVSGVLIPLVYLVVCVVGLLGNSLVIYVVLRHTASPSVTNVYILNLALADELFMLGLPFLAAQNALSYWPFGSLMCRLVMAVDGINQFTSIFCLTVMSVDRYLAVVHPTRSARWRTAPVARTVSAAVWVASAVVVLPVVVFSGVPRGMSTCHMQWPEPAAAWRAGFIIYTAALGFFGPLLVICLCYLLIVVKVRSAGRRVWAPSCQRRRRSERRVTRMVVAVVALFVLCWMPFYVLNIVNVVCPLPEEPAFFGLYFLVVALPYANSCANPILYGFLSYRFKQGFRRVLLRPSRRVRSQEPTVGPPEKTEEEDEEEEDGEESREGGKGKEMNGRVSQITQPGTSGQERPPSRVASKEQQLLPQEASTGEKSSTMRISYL
- test protocol: SSTR3 functional antagonist assay: cAMP production with FSK + SS-14 in SSTR3 stable CHO cells
- experimental conditions: […] FSK + 100 nM SS-14
readout: EC50 (nM)
Enter your answer as a number in nM; do not include the unit.

Entry COCc1nc(C2(c3nnc(O)o3)N[C@@H](c3nc(-c4ccc(F)cn4)c[nH]3)Cc3c2[nH]c2ccccc32)no1 (single isomer, unassigned) [Example 39] — recorded EC50 = 12.5

EC50 recorded for this molecule, Oc1nnc(C2(c3cnn(C4CC4)c3)N[C@@H](c3nc(-c4ccc(F)cn4)c[nH]3)Cc3c2[nH]c2ccccc32)o1 (single isomer, unassigned) [Example 37] , is 0.6

// sample Cn1nnc(C2(c3nnc(O)o3)N[C@@H](c3nc(-c4ccc(F)cn4)c[nH]3)Cc3c2[nH]c2ccccc32)n1 (single isomer, unassigned) [Example 43] , its EC50 was 1070

According to the records, this molecule CCn1nnc(C2(c3nn(C)c(=O)o3)N[C@@H](c3nc(-c4ccc(F)cn4)c[nH]3)Cc3c2[nH]c2ccccc32)n1 (single isomer, unassigned) [Example 47] displays EC50 of 74.4

----------
- measured on: SSTR3 (Homo sapiens)
- test protocol: SSTR3 functional antagonist assay: cAMP production with FSK + SS-14 in SSTR3 stable CHO cells
- experimental conditions: […] FSK + 100 nM SS-14
Kindly supply the reported EC50 values for the records listed here.
Report the value in nM with no unit label.

So for Cn1cc(C2(c3nn(C)c(=O)o3)N[C@@H](c3nc(-c4ccc(F)cc4)c[nH]3)Cc3c2[nH]c2ccccc32)cn1 (single isomer, unassigned) [Example 22] , the logged EC50 turned out to be 6.1

Recorded EC50 (compound CCn1cc(C2(c3nnc(O)o3)NC(c3nc(-c4ccc(F)cc4)c[nH]3)Cc3c2[nH]c2ccccc32)cn1 (mixture of isomers) ): 1.8

So for CSc1nnc(C2(c3cnn(C)c3)NC(c3nc(-c4ccc(F)cn4)c[nH]3)Cc3c2[nH]c2ccccc32)o1 (mixture of isomers) , the logged EC50 turned out to be 0.8

# EC50 of CCn1nnc(C2(c3nn(C)c(=O)o3)N[C@@H](c3nc(-c4ccc(F)cn4)c[nH]3)Cc3c2[nH]c2ccccc32)n1 (single isomer, unassigned) [Example 46] = 21.4

EC50 in this record for Cn1nc(C2(c3ccc(C#N)cc3)NC(c3nc(-c4ccc(F)cc4)c[nH]3)Cc3c2[nH]c2ccccc32)oc1=O (single isomer, unassigned) [Example 15] : 30.5

// recorded EC50 for Cn1cc(C2(c3nnc(O)o3)N[C@@H](c3nc(-c4ccc(F)cc4)c[nH]3)Cc3c2[nH]c2ccccc32)cn1 (single isomer, unassigned) [Example 18] : 1.1

In plain terms, CSc1nnc(C2(c3cnn(C)c3)N[C@@H](c3nc(-c4ccc(F)cc4)c[nH]3)Cc3c2[nH]c2ccccc32)o1 (stereo partly shown) has a documented EC50 of 1.9

Kindly note the recorded EC50 for Cn1cc(C2(c3nnc(N)o3)N[C@@H](c3nc(-c4ccc(F)cc4)c[nH]3)Cc3c2[nH]c2ccccc32)cn1 (single isomer, unassigned) [Example 53] , which is 0.2

# compound Cn1nc(C2(c3ccccc3)N[C@@H](c3nc(-c4ccc(F)cc4)c[nH]3)Cc3c2[nH]c2ccccc32)oc1=O (single isomer, unassigned) [Example 2] ; its EC50 = 29.1

EC50 recorded for this compound, Cn1nc(C2(c3ccc(C#N)cc3)NC(c3nc(-c4ccc(F)cc4)c[nH]3)Cc3c2[nH]c2ccccc32)oc1=O (single isomer, unassigned) [Example 14] , is 5.4

Memo: Cn1cc(C2(c3nnc(N)o3)N[C@@H](c3nc(-c4ccc(F)cc4)c[nH]3)Cc3c2[nH]c2ccccc32)cn1 (single isomer, unassigned) [Example 52] , reported EC50: 8

EC50 measured on CCn1nnc(C2(c3nnc(O)o3)N[C@@H](c3nc(-c4ccc(F)cn4)c[nH]3)Cc3c2[nH]c2ccccc32)n1 (single isomer, unassigned) [Example 45] = 32.6

The reported EC50 of the compound COCc1nc(C2(c3nn(C)c(=O)o3)N[C@@H](c3nc(-c4ccc(F)cn4)c[nH]3)Cc3c2[nH]c2ccccc32)no1 (single isomer, unassigned) was 3.2

Item: CCn1nc(C2(c3noc(C)n3)N[C@@H](c3nc(-c4ccc(F)cn4)c[nH]3)Cc3c2[nH]c2ccccc32)oc1=O (single isomer, unassigned) [Example 9] | EC50: 2.6

Lab note: measured EC50 of CCn1nc(C2(c3noc(C)n3)N[C@@H](c3nc(-c4ccc(F)cn4)c[nH]3)Cc3c2[nH]c2ccccc32)oc1=O (single isomer, unassigned) [Example 8] was 18

The reported value for Cn1cc(C2(c3nn(C)c(=O)o3)N[C@@H](c3nc(-c4ccc(F)cc4)c[nH]3)Cc3c2[nH]c2ccccc32)cn1 (single isomer, unassigned) [Example 23] in terms of EC50 is 2.3

Lab note: measured EC50 of CCn1nc(C2(c3ccc(C#N)cc3)N[C@@H](c3nc(-c4ccc(F)cn4)c[nH]3)Cc3c2[nH]c2ccccc32)oc1=O (single isomer, unassigned) [Example 16] was 11

So for CCn1nc(C2(c3ccc(C#N)cc3)N[C@@H](c3nc(-c4ccc(F)cn4)c[nH]3)Cc3c2[nH]c2ccccc32)oc1=O (single isomer, unassigned) [Example 17] , the logged EC50 turned out to be 25.6

// EC50 lookup, compound = Cn1nc(C2(c3ccccc3)NC(c3nc(-c4ccc(F)cn4)c[nH]3)Cc3c2[nH]c2ccccc32)oc1=O (single isomer, unassigned) [Example 12] , result: 5.9

So for CCn1nnc(C2(c3nnc(O)o3)N[C@@H](c3nc(-c4ccc(F)cn4)c[nH]3)Cc3c2[nH]c2ccccc32)n1 (single isomer, unassigned) [Example 44] , the logged EC50 turned out to be 2000

Record CCOC(=O)Cn1nc(C2(c3cnn(CC)c3)N[C@@H](c3nc(-c4ccc(F)cn4)c[nH]3)Cc3c2[nH]c2ccccc32)oc1=O (single isomer, unassigned) . Reported EC50: 0.5

Reported EC50 for Cn1nc(C2(c3ccccc3)NC(c3nc(-c4ccc(F)cn4)c[nH]3)Cc3c2[nH]c2ccccc32)oc1=O (single isomer, unassigned) [Example 11] was 74.1
